target: recombinant LDHB (Homo sapiens); construct: His-tag; test: LDHB enzyme activity inhibition assay (NADH oxidation, 340 nm); conditions: 0.08 mM sodium pyruvate, 0.04 mM NADH, 10 min pre-incubation, 30 °C; read-out: IC50 against LDHB
Sequence (P07195 whole entry): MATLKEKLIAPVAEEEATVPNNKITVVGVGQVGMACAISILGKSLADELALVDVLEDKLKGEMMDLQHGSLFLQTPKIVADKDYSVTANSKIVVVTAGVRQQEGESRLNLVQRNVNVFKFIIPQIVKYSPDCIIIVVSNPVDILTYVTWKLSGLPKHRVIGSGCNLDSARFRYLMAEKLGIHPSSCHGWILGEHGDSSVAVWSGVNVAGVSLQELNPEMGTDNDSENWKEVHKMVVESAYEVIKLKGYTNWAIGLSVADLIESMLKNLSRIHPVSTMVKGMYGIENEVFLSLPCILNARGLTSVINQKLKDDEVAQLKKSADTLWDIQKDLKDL
Listed here are molecules together with their documented pIC50.
Just so you know, pIC50 here is -log10 of the concentration in molar units; reply with that number alone.

Some entries whose results are on file:
[[record]]
mol_smiles = "O=c1c(O)c(-c2ccc(O)c(O)c2)oc2cc(O)cc(O)c12"
quantitative_result = 6.06

[[record]]
mol_smiles = "O=c1c(O)c(-c2ccc(O)cc2)oc2cc(O)cc(O)c12"
quantitative_result = 5.06


We now examine a further molecule.
Q: Param readout = pIC50; param system = recombinant LDHB (Homo sapiens); param query = O=c1cc(-c2ccc(O)c(O)c2)oc2cc(O)cc(O)c12 ; response: value
A: 5.57

---

biological target: recombinant LDHA (Homo sapiens, UniProt P00338); assay: LDHA enzyme activity inhibition assay (NADH oxidation, 340 nm); assay type: biochemical; set-up: His-tag; made in house; host or cells: E. coli BL21(DE3); conditions: 0.16 mM sodium pyruvate, 0.04 mM NADH, 10 min pre-incubation, 30 °C; read-out: IC50 against LDHA
Property Measured: IC50 (nM)
State the answer as a number, implicitly in nM.

Some entries whose results are on file:
[[record]]
compound = "O=c1c(O)c(-c2ccc(O)c(O)c2)oc2cc(O)cc(O)c12"
quantitative_result = 270

[[record]]
compound = "O=C(O[C@@H]1Cc2c(O)cc(O)cc2O[C@@H]1c1ccc(O)c(O)c1)c1cc(O)c(O)c(O)c1 [Epicatechin gallate, epicatechin gallate]"
quantitative_result = 2270


We now examine a further compound.
Q: Param readout = IC50; param system = recombinant LDHA (Homo sapiens, UniProt P00338); param query = O=c1c(O)c(-c2ccc(O)cc2)oc2cc(O)cc(O)c12 ; response: value
A: 700

---

target: recombinant LDHA (Homo sapiens); test: LDHA enzyme activity inhibition assay (NADH oxidation, 340 nm); format: biochemical; design: His-tag; made in house; host or cells: E. coli BL21(DE3)
Property Measured: IC50 (nM)
State the answer as a number, implicitly in nM.

Q: Need IC50 of Cc1cc2c(C(C)C)c(O)c(O)c(C=O)c2c(O)c1-c1c(C)cc2c(C(C)C)c(O)c(O)c(C=O)c2c1O [gossypol, reference compound] , thanks.
A: 190
